System: THP-1
Test: Induction of LPS-B-induced TNF-alpha production in human THP1 cells at 60 uM after 4 hrs
Assay type: functional
propertyMeasured: Activity (%)
Please respond with the number in % and leave the unit unwritten.

CCCCCCCCOc1cc2c(c(OCCCCCCCC)c1OC)[C@@H]1O[C@H](CO)[C@@H](O)[C@H](O)[C@H]1OC2=O 3.4

Q. Entry CCCOc1cc2c(c(OCCC)c1OC)[C@@H]1O[C@H](CO)[C@@H](O)[C@H](O)[C@H]1OC2=O : reported Activity = ?
A. 5.57

Q. Now the compound COc1c(O)cc2c(c1O)[C@@H]1O[C@H](CO)[C@@H](O)[C@H](O)[C@H]1OC2=O
A. 7.91
